Cited source for all entries: ChEMBL document CHEMBL4831494

# PROCEDURE SUMMARY: Tmax in Sprague-Dawley rat at 2 mg/kg, iv measured upto 24 hrs by LC-MS/MS analysis
# Format: ADME, organism-based
# COND: in vivo

| CPD SMILES | UNITS OF MEASURE | Tmax |
| --- | --- | --- |
| CNC(=O)c1ccccc1Nc1nc(Nc2cccc(NC(C)=O)c2)nc2[nH]cc(F)c12 | min | 4.8 |

###

# PROCEDURE SUMMARY: Half life in Sprague-Dawley rat at 10 mg/kg, po measured upto 24 hrs by LC-MS/MS analysis
# Type: ADME, organism-based
# COND: in vivo

| CPD SMILES | half-life / h |
| --- | --- |
| CNC(=O)c1ccccc1Nc1nc(Nc2cccc(NC(C)=O)c2)nc2[nH]cc(F)c12 | 3.65 |

###

# PROCEDURE SUMMARY: MRT (0 to t) in Sprague-Dawley rat at 2 mg/kg, iv measured upto 24 hrs by LC-MS/MS analysis
# Assay type: ADME, organism-based
# COND: in vivo

| CPD SMILES | UNITS OF MEASURE | MRT last at 24 h |
| --- | --- | --- |
| CNC(=O)c1ccccc1Nc1nc(Nc2cccc(NC(C)=O)c2)nc2[nH]cc(F)c12 | min | 30.6 |

###

# PROCEDURE SUMMARY: MRT (0 to infinity) in Sprague-Dawley rat at 10 mg/kg, po by LC-MS/MS analysis
# Format: ADME, organism-based
# COND: in vivo
ENDPOINT: MRT inf (h)

| CPD SMILES | NUMERIC READOUT |
| --- | --- |
| CNC(=O)c1ccccc1Nc1nc(Nc2cccc(NC(C)=O)c2)nc2[nH]cc(F)c12 | 6.62 |

###

# PROCEDURE SUMMARY: Cmax in Sprague-Dawley rat at 10 mg/kg, po measured upto 24 hrs by LC-MS/MS analysis
# Assay type: ADME, organism-based
# Design: route oral, dose 10 mg/kg, time <=24
# COND: in vivo

| CPD SMILES | Cmax (ng/mL) |
| --- | --- |
| CNC(=O)c1ccccc1Nc1nc(Nc2cccc(NC(C)=O)c2)nc2[nH]cc(F)c12 | 15.4 |

###

# PROCEDURE SUMMARY: Half life in Sprague-Dawley rat at 2 mg/kg, iv measured upto 24 hrs by LC-MS/MS analysis
# Type: ADME, organism-based
# COND: in vivo

| CPD SMILES | half-life (h) |
| --- | --- |
| CNC(=O)c1ccccc1Nc1nc(Nc2cccc(NC(C)=O)c2)nc2[nH]cc(F)c12 | 1.46 |

###

# PROCEDURE SUMMARY: AUC (0 to infinity) in Sprague-Dawley rat at 10 mg/kg, po by LC-MS/MS analysis
# Assay type: ADME, organism-based
# Parameters: time infinity, route oral, dose 10 mg/kg
# COND: in vivo
ENDPOINT: AUC(0-inf) (ng·h/mL)

| CPD SMILES | ENDPOINT | NUMERIC READOUT |
| --- | --- | --- |
| CNC(=O)c1ccccc1Nc1nc(Nc2cccc(NC(C)=O)c2)nc2[nH]cc(F)c12 | AUC(0-inf) | 119 |

###

# PROCEDURE SUMMARY: AUC (0 to t) in Sprague-Dawley rat at 2 mg/kg, iv measured upto 24 hrs by LC-MS/MS analysis
# Assay type: ADME, organism-based
# Parameters: route intravenous, dose 2 mg/kg, time <=24
# COND: in vivo
ENDPOINT: AUC(0-t) at 24 h

| CPD SMILES | RESULT |
| --- | --- |
| CNC(=O)c1ccccc1Nc1nc(Nc2cccc(NC(C)=O)c2)nc2[nH]cc(F)c12 | 2300 ng·h/mL |
